Values from patent US12187713B2

# subject_of_test: PD-1/PD-L1 (Homo sapiens (Human))
# Sequence (Q9NZQ7 19-238): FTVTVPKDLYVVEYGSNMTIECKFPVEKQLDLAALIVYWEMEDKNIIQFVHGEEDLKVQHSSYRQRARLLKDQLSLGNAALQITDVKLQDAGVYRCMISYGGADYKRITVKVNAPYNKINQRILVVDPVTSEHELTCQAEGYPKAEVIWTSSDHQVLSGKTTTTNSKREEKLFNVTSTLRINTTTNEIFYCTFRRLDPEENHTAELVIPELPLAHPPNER
# method_summary: PD-1/PD-L1 Binding Assay (Alphascreen)
# experimental_parameters: numeric values
reported_property: IC50 (nM)
Write the answer as a number in nM, unit excluded.

molecule	IC50 / nM
Cc1cc(-c2cccc(-c3cccc(-c4nc5cc(CN6CCC[C@H]6C(=O)O)c(OC(F)F)cc5o4)c3C)c2C)ccc1CN1CCCC1 [Example 230]	1.5
Cc1c(-c2nc3cc(CN4CC(C)(C)C4)c(OC(F)F)cc3o2)cccc1-c1cccc(-c2nc3cc(CN4CCC[C@H]4C(=O)O)c(OC(F)F)cc3o2)c1C#N [Example 128]	0.14
Cc1c(-c2nc3cc(CN4C[C@@H](F)[C@H](F)C4)c(OC(F)F)cc3o2)cccc1-c1cccc(-c2nc3cc(CN4CCC[C@H]4C(=O)O)c(OC(F)F)cc3o2)c1C [Example 18]	164
Cc1c(-c2nc3cc(CNC[C@@H]4CCCO4)c(OC(F)F)cc3o2)cccc1-c1cccc(-c2nc3cc(CN4CCC[C@H]4C(=O)O)c(OC(F)F)cc3o2)c1C [Example 64]	1.8
Cc1nc(-c2cccc(-c3cccc(-c4nc5cc(CN6CCC[C@H]6C(=O)O)c(OC(F)F)cc5o4)c3C)c2C)oc1CN1CCCC1 [Example 304]	27

Lookup: What does the data say about its IC50? Entry: Cc1c(-c2nc3cc(CN4CCC4(C)O)ccc3o2)cccc1-c1cccc(-c2nc3cc(CN4CCC[C@H]4C(=O)O)c(OC(F)F)cc3o2)c1C (stereo partly shown) [Example 104]
Found: 0.19

Lookup: Any idea what its IC50 is? The molecule is Cc1c(-c2nc3cc(CN4CCC4C)c(OC(F)F)cc3o2)cccc1-c1cccc(-c2nc3cc(CN4CCC[C@H]4C(=O)O)c(OC(F)F)cc3o2)c1C (stereo partly shown) [Example 36]
Found: 1.1
